# assay_info: Tumour pharmacokinetics: fenretinide and metabolite levels in plasma and tumours of xenografted mice
# Assay type: in vivo
# condition_parameters: female, NSG, mouse, tumour, oral; lung cancer xenograft, Bio-nFeR 100 mg/kg; read-out: Mean 4-HPR concentration ± (sd): Tumor

# compound, concentration at 3 h (ng/g)
rows = [
    ("CC1=C(/C=C/C(C)=C/C=C/C(C)=C/C(=O)Nc2ccc(O)cc2)C(C)(C)CCC1 [4-HPR, 4-hydroxy (phenyl)retinamide, reference compound]", 2230),
]

----------
# assay_info: Tumour pharmacokinetics: fenretinide and metabolite levels in plasma and tumours of xenografted mice
# Assay type: in vivo
# condition_parameters: female, NOD-SCID, mouse, plasma, oral; colon cancer xenograft mice, Bio-nFeR 150 mg/kg; read-out: Mean 4-HPR concentration: Plasma
measure: concentration at 3 h (µM)

# compound, value_units, reported_result
measured = [
    ("CC1=C(/C=C/C(C)=C/C=C/C(C)=C/C(=O)Nc2ccc(O)cc2)C(C)(C)CCC1 [4-HPR, 4-hydroxy (phenyl)retinamide, reference compound]", "µM", 12.1),
]
